Target: Thyrotropin receptor (Homo sapiens)
Test: qHTS for antagonists of the Thyroid Stimulation Hormone Receptor: Hit Validation in Primary Screen; also: nearly all actives have a fitted effect of over 80% in size
Settings: TSHR-expressing cells, cAMP antagonist mode; series mostly up to 58 µM
Out of some 1,300 compounds screened, about 380 (29%) were called active. Inconclusive results (about 37%) are left out. Calls follow the shape of the dose curve; as a rule, active = well fitted inhibition curve with a large enough effect; inconclusive = small, poorly fitted or top-dose-only effect; inactive = flat fitted curve, though single readings scatter. Some of the results follow.
Returns: one label drawn from 1 (yes) (active), 0 (no) (inactive)

Assay outcome for COC(=O)C1=C(c2ccc(OCc3ccccc3)cc2)C[C@@H]2CC[C@H]1N2C(=O)NCc1cccc(OC)c1 : what was it?
0 (no)

N#CC(C#N)=NNc1ccc(-n2ccc(C(F)(F)F)n2)cc1 , same question.
1 (yes)

CC12CCC3C(CC=C4CC5(CCC43C)OCCO5)C1CCC2=O (stereo not given) , same question.
0 (no)
